Assay: Human HepG2 cell viability assay in 384 well format
Type: toxicity, cell-based
Parameters: dose 125 nL, time 70.5 hour; concentration not given beside the values
Settings: HepG2 cells, read-out: Inhibition
quantityName: cytotoxicity at 70.5 h (%)
Give a bare numeral; the unit % is implied.

Worked set:
Task: What value of cytotoxicity at 70.5 h has been recorded for this entry: CN(CC1CC1)c1ccc2ccc(C(=O)NCCc3ccccc3)cn12
Result: -12.6

Task: What value of cytotoxicity at 70.5 h has been recorded for this entry: CC(C)Nc1ncnc2c1CCN(C(=O)[C@H]1CCCO1)CC2
Result: -6.46

Task: What value of cytotoxicity at 70.5 h has been recorded for this entry: Cc1nnc(-c2ccc(C(=O)Nc3ccnc(N(C)C)n3)cc2)o1
Result: 4.63

Task: What value of cytotoxicity at 70.5 h has been recorded for this entry: Cc1nc(CCNC(Cc2ccncc2)C(F)(F)F)cs1 (stereo unspecified)
Result: -3.19

Task: What value of cytotoxicity at 70.5 h has been recorded for this entry: CS(=O)(=O)CCCNC1(c2cccc(Cl)c2)CCCC1
Result: -5.23

Field: next molecule
Task: What value of cytotoxicity at 70.5 h has been recorded for this entry: Cc1csc(CN2CC[C@H]3C(=O)N(c4cccnc4)CCO[C@H]3C2)n1
Result: 11

* * *

# key: entry, value: cytotoxicity at 70.5 h
Test: Human HepG2 cell viability assay in 384 well format
Assay type: toxicity, cell-based
Set-up: dose 125 nL, time 70.5 hour; concentration not given beside the values
Settings: HepG2 cells, read-out: Inhibition
Give a bare numeral; the unit % is implied.

Task: What value of cytotoxicity at 70.5 h has been recorded for this entry: CCCS(=O)(=O)N1CCN(c2cc(-n3ccnc3)nc(C)n2)CC1
Result: -3.96

Task: What value of cytotoxicity at 70.5 h has been recorded for this entry: COCC1CC2(CCN(c3cc(OC)ncn3)CC2)CN1C(C)C (stereo unspecified)
Result: -8.64

Task: What value of cytotoxicity at 70.5 h has been recorded for this entry: Cc1nc(CN2C(=O)CC3(CCN(C(N)=O)CC3)c3ccccc32)cs1
Result: -2.82

Task: What value of cytotoxicity at 70.5 h has been recorded for this entry: CC(c1ccccc1Cl)N(C)Cc1nc2c(cnn2C)c(=O)[nH]1 (stereo unspecified)
Result: -2.36

Task: What value of cytotoxicity at 70.5 h has been recorded for this entry: CC(C(=O)NCc1ccnc(Oc2ccc(F)cc2)c1)n1cncn1 (stereo unspecified)
Result: -9.56

Task: What value of cytotoxicity at 70.5 h has been recorded for this entry: Cc1n[nH]cc1CNC(=O)Nc1cccc(OCC(F)(F)F)c1
Result: -6.62

Task: What value of cytotoxicity at 70.5 h has been recorded for this entry: COc1ccc(CN2CCc3ncnc(OC(C)C)c3CC2)cc1
Result: 43.9

Task: What value of cytotoxicity at 70.5 h has been recorded for this entry: COCC1c2c(cnn2C)CCN1Cc1ccc(C)o1 (stereo unspecified)
Result: -18.3

Task: What value of cytotoxicity at 70.5 h has been recorded for this entry: COc1nc2c(cc1C(=O)N(C)Cc1noc3c1CCCC3)CCC2
Result: -0.83

Task: What value of cytotoxicity at 70.5 h has been recorded for this entry: Cc1cc(C)n2ncc(CN3C[C@@H](O)[C@H](Oc4ccccc4)C3)c2n1
Result: -13.5

Field: next compound
Task: What value of cytotoxicity at 70.5 h has been recorded for this entry: O=C(NCc1nnc2n1CCCC2)N1CCc2ccccc2C1
Result: -2.97

* * *

Assay: Human HepG2 cell viability assay in 384 well format
Assay type: toxicity, cell-based
Set-up: dose 125 nL, time 70.5 hour; concentration not given beside the values
Details: HepG2 cells, read-out: Inhibition
# key: entry, value: cytotoxicity at 70.5 h

Task: What value of cytotoxicity at 70.5 h has been recorded for this entry: Cc1cnn(CCNCc2ccc(OCc3ccccn3)cc2)c1
Result: 2.45%

Others:
Task: What value of cytotoxicity at 70.5 h has been recorded for this entry: Cn1ccnc1CNC(=O)CCc1cccc(F)c1
Result: -9.01%

Task: What value of cytotoxicity at 70.5 h has been recorded for this entry: COC(=O)N1CCC(NC(=O)CC(C)CCc2ccccc2)CC1 (centres undefined)
Result: -14%

Task: What value of cytotoxicity at 70.5 h has been recorded for this entry: Cc1nc[nH]c1CN1CCn2nc(CN3Cc4ccccc4C3)cc2C1
Result: -7.32%

Task: What value of cytotoxicity at 70.5 h has been recorded for this entry: O=C(c1nc2c(s1)CCCN2CC1CC1)N1CCOCC1
Result: 4.5%

Task: What value of cytotoxicity at 70.5 h has been recorded for this entry: Cc1cnn(C2CCCN(C(=O)c3ccccc3-n3cnnn3)C2)c1 (centres undefined)
Result: -3.2%

Task: What value of cytotoxicity at 70.5 h has been recorded for this entry: O=C(NCc1nnc2n1CCCC2)c1cn(-c2ccccc2)nn1
Result: -4.64%

Task: What value of cytotoxicity at 70.5 h has been recorded for this entry: COc1cccc2c1OCC(NC(=O)NCc1cccs1)C2 (centres undefined)
Result: -0.177%

Task: What value of cytotoxicity at 70.5 h has been recorded for this entry: CC(C)(C)CN1CCN2C(=O)N(C3CCCCC3)C[C@H]2C1
Result: -11.1%

Task: What value of cytotoxicity at 70.5 h has been recorded for this entry: O=C(Cc1cccnc1)N1CCCC2(CCN(CC3CCOCC3)C2)C1 (centres undefined)
Result: 1.37%

Task: What value of cytotoxicity at 70.5 h has been recorded for this entry: CCOc1ccccc1C(=O)NCc1nncn1C1CC1
Result: 3.5%

Task: What value of cytotoxicity at 70.5 h has been recorded for this entry: O=C1COc2cccc(OCc3ccccn3)c2N1
Result: -0.596%

Task: What value of cytotoxicity at 70.5 h has been recorded for this entry: O=C(Cn1nc2c(cc1=O)CCCC2)NC(C(=O)O)c1ccccc1 (centres undefined)
Result: -12.2%

Task: What value of cytotoxicity at 70.5 h has been recorded for this entry: c1cncc(-c2nnn3c2COCC(CNC2CCOCC2)C3)c1 (centres undefined)
Result: 12.3%

Task: What value of cytotoxicity at 70.5 h has been recorded for this entry: O=C(NCc1ccc2c(c1)OCO2)[C@H]1C=CCN1c1ncccn1
Result: -4.63%

Task: What value of cytotoxicity at 70.5 h has been recorded for this entry: COc1ncccc1-c1nc(-c2ccccn2)nn1C1CCN(C)CC1
Result: -6.87%

* * *

# key: entry, value: cytotoxicity at 70.5 h
Test: Human HepG2 cell viability assay in 384 well format
Format: toxicity, cell-based
Parameters: dose 125 nL, time 70.5 hour; concentration not given beside the values
Settings: HepG2 cells, read-out: Inhibition
Give a bare numeral; the unit % is implied.

Worked set:
Task: What value of cytotoxicity at 70.5 h has been recorded for this entry: CC(=O)N1CCC2(CC1)C(=O)N(C)c1ccc(F)cc12
Result: -8.53

Task: What value of cytotoxicity at 70.5 h has been recorded for this entry: O=C(CN1CCOCC1)Nc1ncc(Br)cc1Br
Result: -5.32

Task: What value of cytotoxicity at 70.5 h has been recorded for this entry: Cc1nc(C(Cc2ccsc2)NC(=O)CN2CCOCC2)sc1C (configuration not stated)
Result: -4.95

Field: next compound
Task: What value of cytotoxicity at 70.5 h has been recorded for this entry: Cc1ccc(-n2ncc(C(=O)NC3CC(C)(C)NC(C)(C)C3)c2N)cc1
Result: 19.8

* * *

Experiment: Human HepG2 cell viability assay in 384 well format
Assay type: toxicity, cell-based
Design: dose 125 nL, time 70.5 hour; concentration not given beside the values
Conditions: HepG2 cells, read-out: Inhibition
quantityName: cytotoxicity at 70.5 h (%)
Give a bare numeral; the unit % is implied.

Task: What value of cytotoxicity at 70.5 h has been recorded for this entry: CC(C)c1nsc(N2CCS(=O)(=O)CC2)n1
Result: -22.3

Others:
Task: What value of cytotoxicity at 70.5 h has been recorded for this entry: CC(C)c1nc(CN(C)C(=O)c2ccc3c(c2)OCC(=O)N3)cs1
Result: -6.75

Task: What value of cytotoxicity at 70.5 h has been recorded for this entry: CC(C)n1ccc(=O)nc1SC1CCN(c2ccccc2F)C1=O (centres undefined)
Result: -1.73

Task: What value of cytotoxicity at 70.5 h has been recorded for this entry: Cc1nonc1CN(C)c1nc(-c2ccco2)nc2c1CCN(C)CC2
Result: -8.33

Task: What value of cytotoxicity at 70.5 h has been recorded for this entry: CN1CCC(Cc2nc(-c3ccnn3C)n(Cc3ccccc3)n2)CC1
Result: 12.7

Task: What value of cytotoxicity at 70.5 h has been recorded for this entry: O=C(CC1CCCC1)NCCNCc1cccc2c1OCCO2
Result: 4.62

Task: What value of cytotoxicity at 70.5 h has been recorded for this entry: CO[C@@H]1CN(c2ccccc2)S(=O)(=O)[C@@]12CCN(S(C)(=O)=O)C2
Result: 15.4

Task: What value of cytotoxicity at 70.5 h has been recorded for this entry: Cc1cccc(CN2CCCC2c2cncc(Nc3nncs3)n2)c1 (centres undefined)
Result: 2.33

Task: What value of cytotoxicity at 70.5 h has been recorded for this entry: COc1ccc(NC(=O)C2CC(=O)N(C)C2)cn1 (centres undefined)
Result: -5.38

Task: What value of cytotoxicity at 70.5 h has been recorded for this entry: Fc1cccc(N2CCc3ncnc(C4CC4)c3CC2)c1
Result: -4.85
